Please respond with reported pKd for every item in the list.
Molecular target: T1, Human Nectin-4 (human, UniProt Q96NY8 32-349, limits assumed)
T1 construct: Protein immobilised on the SPR chip; also called target protein
T1 sequence: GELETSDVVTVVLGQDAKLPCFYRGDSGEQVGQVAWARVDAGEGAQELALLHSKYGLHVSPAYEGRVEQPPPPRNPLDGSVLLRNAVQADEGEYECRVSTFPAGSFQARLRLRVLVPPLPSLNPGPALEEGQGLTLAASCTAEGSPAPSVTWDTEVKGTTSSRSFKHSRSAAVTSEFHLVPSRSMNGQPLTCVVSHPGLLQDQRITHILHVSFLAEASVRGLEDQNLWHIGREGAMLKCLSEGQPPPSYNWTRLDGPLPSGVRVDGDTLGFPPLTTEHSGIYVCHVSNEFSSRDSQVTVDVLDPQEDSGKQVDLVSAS
Assay: Table 2B (DELFIA or SPR)
Bridges are numbered along the chain shown (N, C = ends). Primed or numbered codes have the meaning given here. Where no end group is shown, it is not given here. The star is where a group is joined. Biotin = O=C1N[C@H]2[C@H](CS[C@H]2CCCCC(=O)*)N1; PEG4″ = 4(ethylene glycol)
# pKd = -log10(concentration in molar units)

Value of pKd reported for the binder {Biotin-PEG4″}-CEYDEEFFTALKRLRGGDICDYIQASFQYLPGECIEEILQNLGCS-OH (designed binder, disulfide 1-34, 20-44) [C205] is 8.68

So, Ac-CEYDEQFFTALSSLRGGDICYYIQEQFANVPGICIEEILDNLGC (designed binder, disulfide 1-34, 20-44) [C136] ? Its pKd was 7.44

Record summary for Ac-CEYDEEFFTGLKRLRGGDICYYIKKKFKKVPELCIEEILKKLGC-OH (designed binder, disulfide 1-34, 20-44) [C65] : reported pKd = 8.66
